- Test system: pathogenic bacteria causing bacterial wilt in cassava
- Test Protocol: organism not typed
- Assay type: cell-based
- Condition Description: read-out: inhibitory rate
Parameter Measured: inhibition at 1 ppm

>>> recorded_value("COCCCOC(=O)c1cn(C2CC2)c2cc(Cl)c(F)cc2c1=O")
"≥ 90%"
>>> recorded_value("COc1cc2c(cc1F)c(=O)c(C(=O)OCCCO)cn2C1CC1")
"≥ 90%"
>>> recorded_value("O=C(OCCCO)c1cn(C2CC2)c2cc(F)ccc2c1=O")
"≥ 90%"
>>> recorded_value("O=C(OCCOC1CC1)c1cn(C2CC2)c2cc(Cl)c(F)cc2c1=O")
"≥ 80%"
>>> recorded_value("COCOC(=O)c1cn(C2CC2)c2ccc(F)cc2c1=O")
"≥ 80%"
>>> recorded_value("CNc1cc2c(cc1F)c(=O)c(C(=O)OCCOC)cn2C1CC1")
"≥ 90%"
>>> recorded_value("CCOCOC(=O)c1cn(C2CC2)c2cc(Cl)c(F)cc2c1=O")
"≥ 80%"
>>> recorded_value("COCCOC(=O)c1cn(C2CC2)c2cc(OC3CCCC3)c(F)cc2c1=O")
"≥ 90%"
>>> recorded_value("COCCOC(=O)c1cn(C2CC2)c2cc(OC)c(F)cc2c1=O")
"≥ 90%"

---

Reported inhibition at 1 ppm by item:
- Test system: pathogenic bacteria causing bacterial blight in rice
- Test Protocol: whole plant or invertebrate
- Assay type: cell-based, xanthomonas
- Condition Description: read-out: inhibitory rate
Parameter Measured: inhibition at 1 ppm

>>> recorded_value("CCN(CC)c1cc2c(cc1F)c(=O)c(C(=O)OCCOC)cn2C1CC1 [Compound 420]")
"≥ 90%"
>>> recorded_value("COCOC(=O)c1cn(C2CC2)c2cc(Cl)c(F)cc2c1=O [Compound 143]")
"≥ 80%"
>>> recorded_value("COCCOC(=O)c1cn(C2CC2)c2cc(OC3CCCC3)c(F)cc2c1=O [Compound 296]")
"≥ 90%"
>>> recorded_value("COCCCOC(=O)c1cn(C2CC2)c2cc(Cl)c(F)cc2c1=O [Compound 165]")
"≥ 90%"
>>> recorded_value("COCCOC(=O)c1cn(C2CC2)c2ccc(Cl)cc2c1=O [Compound 45]")
"≥ 90%"
>>> recorded_value("CCN(CC)c1cc2c(cc1F)c(=O)c(C(=O)OCCO)cn2C1CC1 [Compound 419]")
"≥ 90%"
>>> recorded_value("COCCOC(=O)c1cn(C2CC2)c2cc(SC)c(F)cc2c1=O [Compound 381]")
"≥ 90%"
>>> recorded_value("CCOCOC(=O)c1cn(C2CC2)c2cc(Cl)c(F)cc2c1=O [Compound 144]")
"≥ 80%"
>>> recorded_value("CCOc1cc2c(cc1F)c(=O)c(C(=O)OCCOC)cn2C1CC1 [Compound 282]")
"≥ 90%"

---

- System: pathogenic bacteria causing bacterial angular leaf spot in cucumbers
- Test Protocol: In vitro bactericidal activity, bacterial angular leaf spot in cucumbers
- Type: cell-based, pseudomonas
- Condition Description: dosage 5 ppm, read-out: inhibitory rate
Parameter Measured: inhibition at 5 ppm

>>> recorded_value("COCOC(=O)c1cn(C2CC2)c2ccc(F)cc2c1=O")
"≥ 90%"
>>> recorded_value("CCOCCOC(=O)c1cn(C2CC2)c2cc(Cl)c(F)cc2c1=O")
"≥ 90%"
>>> recorded_value("COCCOC(=O)c1cn(C2CC2)c2ccc(Cl)cc2c1=O")
"≥ 90%"
>>> recorded_value("O=C(OCCCO)c1cn(C2CC2)c2cc(OCC(F)(F)F)c(F)cc2c1=O")
"≥ 90%"
>>> recorded_value("COc1cc2c(cc1F)c(=O)c(C(=O)OCCO)cn2C1CC1")
"≥ 90%"
>>> recorded_value("O=C(OCCO)c1cn(C2CC2)c2cc(Cl)c(F)cc2c1=O")
"≥ 90%"
>>> recorded_value("CCOc1ccc2c(=O)c(C(=O)OCCOC)cn(C3CC3)c2c1")
"≥ 90%"
>>> recorded_value("COCOC(=O)c1cn(C2CC2)c2cc(Cl)c(F)cc2c1=O")
"≥ 90%"
>>> recorded_value("COCCOC(=O)c1cn(C2CC2)c2cc(OC)ccc2c1=O")
"≥ 90%"
>>> recorded_value("COCCOC(=O)c1cn(C2CC2)c2ccc(F)cc2c1=O")
"≥ 90%"
>>> recorded_value("CNc1cc2c(cc1F)c(=O)c(C(=O)OCCO)cn2C1CC1")
"≥ 90%"
>>> recorded_value("COCCOC(=O)c1cn(C2CC2)c2cc(OCC(F)(F)F)ccc2c1=O")
"≥ 90%"
>>> recorded_value("COCCOC(=O)c1cn(C2CC2)c2cc(F)ccc2c1=O")
"≥ 90%"
>>> recorded_value("CC(C)(C)Oc1cc2c(cc1F)c(=O)c(C(=O)OCCO)cn2C1CC1")
"≥ 90%"
>>> recorded_value("CCOCOC(=O)c1cn(C2CC2)c2ccc(F)cc2c1=O")
"≥ 90%"
>>> recorded_value("CCOc1cc2c(cc1F)c(=O)c(C(=O)OCCO)cn2C1CC1")
"≥ 90%"
>>> recorded_value("CCOCCOC(=O)c1cn(C2CC2)c2cc(SCC)c(F)cc2c1=O")
"≥ 90%"
>>> recorded_value("O=C(OCCO)c1cn(C2CC2)c2ccc(Cl)cc2c1=O")
"≥ 90%"
>>> recorded_value("COCCCOC(=O)c1cn(C2CC2)c2cc(OC)c(F)cc2c1=O")
"≥ 90%"
>>> recorded_value("COCCCOC(=O)c1cn(C2CC2)c2cc(Cl)c(F)cc2c1=O")
"≥ 90%"
>>> recorded_value("CCNc1cc2c(cc1F)c(=O)c(C(=O)OCCOC)cn2C1CC1")
"≥ 90%"
>>> recorded_value("COCCOC(=O)c1cn(C2CC2)c2cc(OC)c(F)cc2c1=O")
"≥ 90%"
>>> recorded_value("COCCCOC(=O)c1cn(C2CC2)c2cc(F)ccc2c1=O")
"≥ 90%"
>>> recorded_value("CCOc1cc2c(cc1F)c(=O)c(C(=O)OCCOC1CCCC1)cn2C1CC1")
"≥ 90%"
>>> recorded_value("CN(C)c1cc2c(cc1F)c(=O)c(C(=O)OCCO)cn2C1CC1")
"≥ 90%"
>>> recorded_value("COCCOC(=O)c1cn(C2CC2)c2cc(N3CCOCC3)c(F)cc2c1=O")
"≥ 90%"
>>> recorded_value("CSc1cc2c(cc1F)c(=O)c(C(=O)OCCO)cn2C1CC1")
"≥ 90%"
>>> recorded_value("CCSc1cc2c(cc1F)c(=O)c(C(=O)OCCO)cn2C1CC1")
"≥ 90%"
>>> recorded_value("O=C(OCCOC1CC1)c1cn(C2CC2)c2cc(Cl)c(F)cc2c1=O")
"≥ 90%"
>>> recorded_value("O=C(OCCCO)c1cn(C2CC2)c2ccc(F)cc2c1=O")
"≥ 90%"
>>> recorded_value("COCCOC(=O)c1cn(C2CC2)c2cc(SCC(F)(F)F)c(F)cc2c1=O")
"≥ 90%"
>>> recorded_value("O=C(OCCO)c1cn(C2CC2)c2cc(OCC(F)(F)F)ccc2c1=O")
"≥ 90%"
>>> recorded_value("CCOCOC(=O)c1cn(C2CC2)c2cc(OCC)c(F)cc2c1=O")
"≥ 90%"
>>> recorded_value("CCSc1cc2c(cc1F)c(=O)c(C(=O)OCCOC)cn2C1CC1")
"≥ 90%"
>>> recorded_value("CCN(CC)c1cc2c(cc1F)c(=O)c(C(=O)OCCO)cn2C1CC1")
"≥ 90%"
>>> recorded_value("O=C(OCCO)c1cn(C2CC2)c2cc(N3CCCCC3)c(F)cc2c1=O")
"≥ 90%"
>>> recorded_value("CCOCCOC(=O)c1cn(C2CC2)c2cc(OC)c(F)cc2c1=O")
"≥ 90%"
>>> recorded_value("CCOc1cc2c(cc1F)c(=O)c(C(=O)OCCOC)cn2C1CC1")
"≥ 90%"

---

Reported inhibition at 1 ppm by item:
- Tested on: pathogenic bacteria causing bacterial wilt in cassava
- Test Protocol: organism not typed
- Type: cell-based
- Condition Description: read-out: inhibitory rate
Parameter Measured: inhibition at 1 ppm

>>> recorded_value("CCOc1ccc2c(=O)c(C(=O)OCCOC)cn(C3CC3)c2c1")
"≥ 90%"
>>> recorded_value("O=C(OCCO)c1cn(C2CC2)c2cc(F)ccc2c1=O")
"≥ 80%"
>>> recorded_value("CCN(CC)c1cc2c(cc1F)c(=O)c(C(=O)OCCOC)cn2C1CC1")
"≥ 90%"
>>> recorded_value("CCSc1cc2c(cc1F)c(=O)c(C(=O)OCCOC)cn2C1CC1")
"≥ 90%"

---

- System: soft rot in Chinese cabbages
- Test Protocol: whole plant or invertebrate
- Condition Description: 48 h, read-out: efficacy against soft rot in Chinese cabbages
Parameter Measured: pest or weed control at 10 ppm

>>> recorded_value("O=C(OCCO)c1cn(C2CC2)c2cc(N3CCCCC3)c(F)cc2c1=O [Compound 431]")
"≥ 90%"
>>> recorded_value("COCCOC(=O)c1cn(C2CC2)c2cc(N(C)C)c(F)cc2c1=O [Compound 414]")
"≥ 90%"
>>> recorded_value("CCOCOC(=O)c1cn(C2CC2)c2ccc(F)cc2c1=O [Compound 2]")
"≥ 90%"
>>> recorded_value("COCCOC(=O)c1cn(C2CC2)c2cc(N3CCOCC3)c(F)cc2c1=O [Compound 426]")
"≥ 90%"
>>> recorded_value("O=C(OCCO)c1cn(C2CC2)c2cc(N3CCOCC3)c(F)cc2c1=O [Compound 425]")
"≥ 90%"
